Target: VLA-4-IgG chimera protein (Homo sapiens, UniProt P05556+P13612)
Sequence (P13612 with tags, fused parts or gaps limits assumed): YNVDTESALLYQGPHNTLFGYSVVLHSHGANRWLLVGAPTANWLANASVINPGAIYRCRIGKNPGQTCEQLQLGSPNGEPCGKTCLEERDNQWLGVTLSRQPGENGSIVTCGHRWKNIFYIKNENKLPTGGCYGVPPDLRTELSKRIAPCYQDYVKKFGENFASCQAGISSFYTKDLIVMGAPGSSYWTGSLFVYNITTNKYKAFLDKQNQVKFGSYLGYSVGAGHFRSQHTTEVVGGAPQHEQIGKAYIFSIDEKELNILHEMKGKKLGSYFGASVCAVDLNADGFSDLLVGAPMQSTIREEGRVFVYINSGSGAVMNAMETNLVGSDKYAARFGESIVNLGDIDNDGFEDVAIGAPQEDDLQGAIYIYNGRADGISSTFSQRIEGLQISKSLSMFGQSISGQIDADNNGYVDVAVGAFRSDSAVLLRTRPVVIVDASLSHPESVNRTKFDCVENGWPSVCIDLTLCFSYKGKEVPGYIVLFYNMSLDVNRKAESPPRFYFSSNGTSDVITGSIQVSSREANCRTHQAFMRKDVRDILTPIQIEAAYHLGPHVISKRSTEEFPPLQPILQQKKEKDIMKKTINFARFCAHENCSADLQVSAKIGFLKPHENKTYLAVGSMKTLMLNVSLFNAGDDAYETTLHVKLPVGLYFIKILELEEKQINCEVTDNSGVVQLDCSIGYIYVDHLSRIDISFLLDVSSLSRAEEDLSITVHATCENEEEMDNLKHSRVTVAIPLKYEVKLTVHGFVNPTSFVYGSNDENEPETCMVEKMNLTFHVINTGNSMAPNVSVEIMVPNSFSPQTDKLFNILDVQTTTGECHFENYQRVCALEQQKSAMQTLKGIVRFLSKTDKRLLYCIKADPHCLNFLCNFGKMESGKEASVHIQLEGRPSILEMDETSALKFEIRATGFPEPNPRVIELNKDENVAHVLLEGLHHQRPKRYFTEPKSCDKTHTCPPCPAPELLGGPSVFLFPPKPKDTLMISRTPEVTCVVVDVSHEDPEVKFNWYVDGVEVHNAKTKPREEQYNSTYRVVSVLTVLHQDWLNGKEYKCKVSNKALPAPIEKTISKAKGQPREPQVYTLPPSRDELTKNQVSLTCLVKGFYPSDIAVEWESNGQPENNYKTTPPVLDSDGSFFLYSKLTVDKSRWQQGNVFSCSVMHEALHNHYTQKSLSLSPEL
Sequence (P05556 with tags, fused parts or gaps limits assumed): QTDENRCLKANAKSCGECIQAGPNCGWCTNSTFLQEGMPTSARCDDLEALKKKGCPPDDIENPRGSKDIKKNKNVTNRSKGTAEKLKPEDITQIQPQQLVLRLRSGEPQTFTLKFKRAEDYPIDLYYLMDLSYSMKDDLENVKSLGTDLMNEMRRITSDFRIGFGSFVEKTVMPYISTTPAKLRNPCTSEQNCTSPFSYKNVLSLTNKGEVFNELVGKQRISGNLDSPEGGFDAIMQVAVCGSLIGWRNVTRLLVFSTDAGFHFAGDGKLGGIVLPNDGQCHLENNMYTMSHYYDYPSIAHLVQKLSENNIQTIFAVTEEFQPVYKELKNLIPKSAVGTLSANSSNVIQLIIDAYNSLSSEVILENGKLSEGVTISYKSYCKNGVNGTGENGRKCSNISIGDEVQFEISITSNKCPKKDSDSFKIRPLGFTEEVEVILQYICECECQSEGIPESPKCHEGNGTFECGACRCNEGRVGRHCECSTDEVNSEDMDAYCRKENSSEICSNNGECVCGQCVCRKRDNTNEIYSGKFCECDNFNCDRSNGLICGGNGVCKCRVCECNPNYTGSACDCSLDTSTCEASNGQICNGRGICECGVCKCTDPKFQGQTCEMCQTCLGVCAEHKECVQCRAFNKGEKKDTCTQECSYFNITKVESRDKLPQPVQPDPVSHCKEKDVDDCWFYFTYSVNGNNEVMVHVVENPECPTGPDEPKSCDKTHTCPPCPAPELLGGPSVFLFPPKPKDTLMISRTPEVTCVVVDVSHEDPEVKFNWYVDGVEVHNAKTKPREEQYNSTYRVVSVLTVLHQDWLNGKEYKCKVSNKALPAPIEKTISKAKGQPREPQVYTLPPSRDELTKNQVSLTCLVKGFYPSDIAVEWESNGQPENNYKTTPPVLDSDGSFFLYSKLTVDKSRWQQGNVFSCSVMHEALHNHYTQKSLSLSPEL
Assay: Inhibitory effect against binding between CS-1 peptide and VLA-4-IgG chimera protein
Conditions: binding of VLA-4-IgG chimera protein to immobilized CS-1 peptide conjugate; compound pre-reacted with chimera protein 20 min; 30° C. 3 hours; absorbance 490 nm
Experimental: The inhibitory activity of the compound according to the present invention against the adhesion of VLA-4 may be determined by using an adhesion-measuring system in which the adhesion between VLA-4-expressing cells such as Ramos cells or Jurkat cells and fibronectin or fibronectin fragment such as a peptide containing CS-1 sequence (Gly Pro Glu Ile Leu Asp Val Pro Ser Thr) (hereinafter referred to as “CS-1 peptide”), immobilized on an immunoplate is measured. […]
REPORTED PROPERTY: IC50 (nM)

The following molecules have reported results that may help.
MOLECULE: Cc1cccc(C)c1C(=O)N[C@@H](CNC(=O)N1CCC2(CC1)C(=O)N(Cc1ccccc1)CN2c1ccccc1)C(=O)O
TESTED SYSTEM: VLA-4-IgG chimera protein (Homo sapiens, UniProt P05556+P13612)
IC50, nM: 2.9
//
MOLECULE: O=C(N[C@@H](CNC(=O)N1CCC2(CC1)C(=O)NCN2c1ccccc1)C(=O)O)c1c(Cl)cccc1Cl
TESTED SYSTEM: VLA-4-IgG chimera protein (Homo sapiens, UniProt P05556+P13612)
IC50, nM: 6.1

A: O=C(O)[C@H](CNC(=O)N1CCC2(CC1)C(=O)N(Cc1ccccc1)CN2c1ccccc1)NC(=O)N1CCC(n2c(=O)[nH]c3ccccc32)CC1
B: COc1cccc(OC)c1C(=O)N[C@@H](CNC(=O)N1CCC2(CC1)C(=O)N(Cc1ccccc1)CN2c1ccccc1)C(=O)O
C: CC(C)C(=O)NC1(c2ccccc2)CCN(C(=O)N[C@@H](CNC(=O)N2CCC3(CC2)C(=O)N(Cc2ccccc2)CN3c2ccccc2)C(=O)O)CC1
Rank the items in ascending order with respect to IC50. Response field: labels, in requested order. A, C, B

Data provenance: patent US6919349B2
